Target: T1, REF^54–155 (recombinant, for NMR) (murine, UniProt Q9JJW6 54-155)
T1 construct: 15N- or 13C/15N-labelled or unlabelled, by experiment; also called Δ53N
Experiment: NMR titration; […]; 30°C; […], pH 6.2
Details: both partners purified
Below, each entry is listed with its recorded pKd.
Units for pKd: none; it is -log10 of a concentration expressed in mol/L.

Example binders with recorded pKd:
binder	result_type	measured
SVWSRLGA (HSV-1 ICP27, residues 103-110; the dash in the printed line is an alignment gap; also called WT ICP27^103–110 peptide; source: synthetic peptide (Peptide Protein Research Ltd)) [ICP27^103–110]	pKd	4.60
GPLGSVWSRLGARRPSCSPEQHGGKVARLQPPPTKAQPAR (remainder of the PreScission protease cleavage site; HSV-1 ICP27, residues 103-138; also called WT-ICP27^103–138; ICP27^103–138 WT peptide; source: expressed as GST-fusion from pGEX-6P-1, cleaved by PreScission protease on GSH resin, purified (Sephacryl S-100 HR); not shown: GST, N-terminal, cleaved) [ICP27^103–138]	pKd	4.55

Exam item: Any idea what its pKd is? The binder is GPLGSVWSRLGARRPECSPEQHGGKVARLQPPPTKAQPAR (remainder of the PreScission protease cleavage site; HSV-1 ICP27, residues 103-138 with S114E (mimic of phosphoserine 114); source: expressed as GST-fusion from pGEX-6P-1, cleaved by PreScission protease on GSH resin, purified (Sephacryl S-100 HR); not shown: GST, N-terminal, cleaved) [ICP27^103–138 S114E]
Marked response: 4.77

Exam item: Any idea what its pKd is? The binder is SCKTSWADRVREAAAQRR (also called WT HVS-ORF57^103–120; source: synthetic peptide (Peptide Protein Research Ltd)) [HVS ORF57^103–120]
Marked response: 4.35

Exam item: Any idea what its pKd is? The binder is SVWSRLGARR (HSV-1 ICP27, residues 103-112; the dash in the printed line is an alignment gap; also called WT ICP27^103–112 peptide; source: synthetic peptide (Peptide Protein Research Ltd)) [ICP27^103–112]
Marked response: 4.00

Where do the numbers come from? From paper PMC3017119.
